Substrate: CCCC(=O)Oc1ccc([N+](=O)[O-])cc1
measurementNotes: hydrolysis kinetics
Type: biochemical, Archaeoglobus fulgidus
measurementContext: 37°C

protein	kcat/Km (M⁻¹ s⁻¹)
AFEST (Archaeoglobus fulgidus DSM 4304; V293G) (protein, pET-28a(+) in E. coli BL21-CodonPlus(DE3), Ni-NTA purified; 5' primer starts … (MLDMPI)) MLDMPIDPVYYQLAEYFDSLPKFDQFSSAREYREAINRIYEERNRQLSQHERVERVEDRTIKGRNGDIRVRVYQQKPDSPVLVYYHGGGFVICSIESHDALCRRIARLSNSTVVSVDYRLAPEHKFPAAVYDCYDATKWVAENAEELRIDPSKIFVGGDSAGGNLAAAVSIMARDSGEDFIKHQILIYPVVNFVAPTPSLLEFGEGLWILDQKIMSWFSEQYFSREEDKFNPLASVIFADLENLPPALIITAEYDPLRDEGEVFGQMLRRAGVEASIVRYRGVLHGFINYYPGLKAARDAINQIAALLVFD	1.21e+07
AFEST (Archaeoglobus fulgidus DSM 4304; F287Y/S94G) (protein, pET-28a(+) in E. coli BL21-CodonPlus(DE3), Ni-NTA purified; 5' primer starts … (MLDMPI)) MLDMPIDPVYYQLAEYFDSLPKFDQFSSAREYREAINRIYEERNRQLSQHERVERVEDRTIKGRNGDIRVRVYQQKPDSPVLVYYHGGGFVICGIESHDALCRRIARLSNSTVVSVDYRLAPEHKFPAAVYDCYDATKWVAENAEELRIDPSKIFVGGDSAGGNLAAAVSIMARDSGEDFIKHQILIYPVVNFVAPTPSLLEFGEGLWILDQKIMSWFSEQYFSREEDKFNPLASVIFADLENLPPALIITAEYDPLRDEGEVFGQMLRRAGVEASIVRYRGVLHGYINYYPVLKAARDAINQIAALLVFD	1e+07
AFEST (Archaeoglobus fulgidus DSM 4304) (protein, pET-28a(+) in E. coli BL21-CodonPlus(DE3), Ni-NTA purified; 5' primer starts … (MLDMPI)) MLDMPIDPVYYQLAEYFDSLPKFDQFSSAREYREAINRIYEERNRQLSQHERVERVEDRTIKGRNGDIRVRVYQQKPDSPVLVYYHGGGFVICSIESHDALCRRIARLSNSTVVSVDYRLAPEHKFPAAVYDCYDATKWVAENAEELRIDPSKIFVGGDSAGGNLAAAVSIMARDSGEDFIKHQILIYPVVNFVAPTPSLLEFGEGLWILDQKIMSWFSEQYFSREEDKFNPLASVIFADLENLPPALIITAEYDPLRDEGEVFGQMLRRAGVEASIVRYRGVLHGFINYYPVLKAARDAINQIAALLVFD	6.03e+06

Provenance of the data: paper PMC3933655
